Origin of values: PubChem BioAssay AID2060361

system: 463943-066-T-J2-PDC tumor spheroids with HUVEC/MSC, viability; test: Anticancer human tumor 463943-066-T-J2-PDC patient-derived colon adenocarcinoma cell line growth inhibition [TAK]; conditions: second compound 9.49 µM; first compound 0.00316 µM; stronger effect = lower value
Measured viability, T/C accompanies every entry in the list below.

>  <COMPOUND>
COc1c(OCCCN2CCOCC2)ccc2c3n(c(=NC(=O)c4cnc(N)nc4)nc12)CCN3 + CC(C)NCC(C(=O)N1CCN(c2ncnc3c2C(C)CC3O)CC1)c1ccc(Cl)cc1

>  <viability, T/C [%]>
81.3

$$$$
>  <COMPOUND>
CC(C)CC(NC(=O)CNC(=O)c1cc(Cl)ccc1Cl)B1OC(=O)CC(CC(=O)O)(C(=O)O)O1 (stereo not given) + CC(C)NCC(C(=O)N1CCN(c2ncnc3c2C(C)CC3O)CC1)c1ccc(Cl)cc1

>  <viability, T/C [%]>
97.2

$$$$
>  <COMPOUND>
COC1CC2CCC(C)C(O)(O2)C(=O)C(=O)N2CCCCC2C(=O)OC(C(C)CC2CCC(OCCO)C(OC)C2)CC(=O)C(C)C=C(C)C(O)C(OC)C(=O)C(C)CC(C)C=CC=CC=C1C (stereo not given) + CC(C)NCC(C(=O)N1CCN(c2ncnc3c2C(C)CC3O)CC1)c1ccc(Cl)cc1

>  <viability, T/C [%]>
81.5

$$$$
>  <COMPOUND>
CC(C)CC(NC(=O)C(Cc1ccccc1)NC(=O)c1cnccn1)B(O)O (stereo not given) + CC(C)NCC(C(=O)N1CCN(c2ncnc3c2C(C)CC3O)CC1)c1ccc(Cl)cc1

>  <viability, T/C [%]>
82.7

$$$$
>  <COMPOUND>
CC(C)n1nc(-c2ccc3oc(N)nc3c2)c2c(N)ncnc21 + CC(C)NCC(C(=O)N1CCN(c2ncnc3c2C(C)CC3O)CC1)c1ccc(Cl)cc1

>  <viability, T/C [%]>
91.4

$$$$

###

tested on: 463943-066-T-J2-PDC tumor spheroids with HUVEC/MSC, viability; assay: Anticancer human tumor 463943-066-T-J2-PDC cell line growth inhibition [TAK]; settings: second compound 30 µM; first compound 0.01 µM; stronger effect = lower value;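 further: spheroids exposed to drugs for seven days; 100% = DMSO vehicle control wells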
Returns: string. Value is fulfilled if measured viability, T/C is below 80%, and not fulfilled if it is greater than or equal to it.

>  <MOLECULE>
CC(C)n1nc(-c2ccc3oc(N)nc3c2)c2c(N)ncnc21 + CC(C)NCC(C(=O)N1CCN(c2ncnc3c2C(C)CC3O)CC1)c1ccc(Cl)cc1

>  <CLASS_NAME>
not fulfilled

$$$$
>  <MOLECULE>
CC(C)CC(NC(=O)CNC(=O)c1cc(Cl)ccc1Cl)B1OC(=O)CC(CC(=O)O)(C(=O)O)O1 (stereo not given) + CC(C)NCC(C(=O)N1CCN(c2ncnc3c2C(C)CC3O)CC1)c1ccc(Cl)cc1

>  <CLASS_NAME>
not fulfilled

$$$$
>  <MOLECULE>
COc1c(OCCCN2CCOCC2)ccc2c3n(c(=NC(=O)c4cnc(N)nc4)nc12)CCN3 + CC(C)NCC(C(=O)N1CCN(c2ncnc3c2C(C)CC3O)CC1)c1ccc(Cl)cc1

>  <CLASS_NAME>
not fulfilled

$$$$
>  <MOLECULE>
CC(C)CC(NC(=O)C(Cc1ccccc1)NC(=O)c1cnccn1)B(O)O (stereo not given) + CC(C)NCC(C(=O)N1CCN(c2ncnc3c2C(C)CC3O)CC1)c1ccc(Cl)cc1

>  <CLASS_NAME>
fulfilled

$$$$
